- assay.target: Calcium/calmodulin-dependent protein kinase type IV (Homo sapiens) (UniProt Q16566);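 also: each value is the mean of the measured CAMK4 inhibition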
- Sequence (Q16566 whole entry): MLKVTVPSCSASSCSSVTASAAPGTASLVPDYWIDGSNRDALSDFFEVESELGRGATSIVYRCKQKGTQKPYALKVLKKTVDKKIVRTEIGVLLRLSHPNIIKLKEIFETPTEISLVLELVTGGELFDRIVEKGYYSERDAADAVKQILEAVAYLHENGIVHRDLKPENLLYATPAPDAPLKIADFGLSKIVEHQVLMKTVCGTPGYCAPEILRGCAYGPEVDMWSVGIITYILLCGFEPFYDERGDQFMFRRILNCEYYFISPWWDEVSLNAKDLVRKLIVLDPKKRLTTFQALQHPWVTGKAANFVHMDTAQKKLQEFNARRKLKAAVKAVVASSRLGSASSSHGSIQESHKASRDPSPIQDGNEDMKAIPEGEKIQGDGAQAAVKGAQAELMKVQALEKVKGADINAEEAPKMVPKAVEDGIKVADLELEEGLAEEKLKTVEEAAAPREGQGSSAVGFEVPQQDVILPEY
- condition.label: at 1 µM
inhibition values for the compounds below.
Respond numerically; units are % and should not be typed.

>  <entry.smiles>
Cc1ccc(NC(=O)c2ccoc2)cc1-c1ccc(C(=O)NCC2CC2)cc1

>  <inhibition / %>
-1.43

$$$$
>  <entry.smiles>
Fc1ccc(-c2ncn(C3CCNCC3)c2-c2ccnc(Oc3ccc4c(c3)OCO4)n2)cc1

>  <inhibition / %>
0.41

$$$$
>  <entry.smiles>
Cc1ccc(C(=O)NC(C)C)cc1-c1ccc(C(=O)NCC2CC2)cc1

>  <inhibition / %>
-2.57

$$$$
>  <entry.smiles>
COC(=O)Nc1nc2ccc(Sc3ccc(NC(=O)Nc4cc(C(F)(F)F)ccc4F)cc3)cc2[nH]1

>  <inhibition / %>
1.75

$$$$
>  <entry.smiles>
Fc1ccc(-c2c(-c3ccncc3)nc3n2CCS3)cc1

>  <inhibition / %>
-0.25

$$$$

Return reported inhibition. Input compound: COc1cccc(/C=N/Nc2ncnc3c2cnn3-c2cccc(OC)c2)c1
0.8

Return reported inhibition. Input compound: CCc1nccc2c1nc(-c1nonc1N)n2CC
1.55

Return reported inhibition. Input compound: O=C(Nc1n[nH]c2cc(-c3cc(F)ccc3F)ccc12)C1CC1
1.99

Return reported inhibition. Input compound: COc1cc2ncn(-c3cc(OCc4cccs4)c(C(N)=O)s3)c2cc1OC
-4.06

Return reported inhibition. Input compound: COc1ccc2cc(-c3c(-c4ccncc4)nc(-c4ccc(S(C)(=O)=O)cc4C)n3C)ccc2c1
0.96

Return reported inhibition. Input compound: NC(=O)c1cc(-c2ccc(F)cc2)cc(-c2ccncc2)c1N
0.56
